# Run Description: Pharmacokinetic assay in mice, blood-brain barrier penetration analysis (Kp)
# Assay type: in vivo
# Condition Label: male, mouse, ICR mice, PO single dose 10 mg/kg, brain vs plasma, read-out: Kp (4 h after administration)
Parameter Measured: Kp at 4 h

Cc1cc2nc(N)c3ccncc3c2cc1C(=O)N(CC1CC1)[C@@H]1COc2cc(C(F)(F)F)ccc21 = 0.4
Nc1nc2cc(Cl)c(C(=O)N(CC3CC3)[C@@H]3COc4cc(C(F)(F)F)ccc43)cc2c2cnccc12 = 0.7
Nc1nc2ccc(C(=O)N(CC3CC3)[C@@H]3COc4cc(C(F)(F)F)ccc43)cc2c2cnccc12 = 0.4

A = Nc1nc2ccc(C(=O)N(CC3CC3)[C@@H]3CCc4cc(C(F)(F)F)ccc43)cc2c2cnccc12
B = CN(C(=O)c1ccc2nc(N)c3ccncc3c2c1)[C@@H]1COc2cc(C(F)(F)F)ccc21 [Reference Compound 2, reference compound]
Lowest Kp at 4 h? choose A or B Please respond with the label that marks your chosen entry.
B
(B: 0.1, A: 0.5)
